target: bovine eNOS (Bos taurus, UniProt P29473); construct: made in house; host or cells: E. coli; test: NOS enzyme assay (hemoglobin capture), eNOS; type: biochemical; details: Table 4, read-out: Ki (μM) eNOS
Could you please report measured Ki for the items listed next?
Please state the number and follow it with the unit.

INSERT INTO results (query_smiles, assay_endpoint, reading) VALUES
  ('Cc1cc(N)nc(CCc2cc(CCCN)cc(CCc3cc(C)cc(N)n3)c2)c1', 'Ki', '12.1 µM'),
  ('Cc1cc(N)nc(CCc2cc(CCc3cc(C)cc(N)n3)cc(N3CCNCC3)c2)c1', 'Ki', '63.2 µM'),
  ('Cc1cc(N)nc(CCc2cc(C#N)cc(CCc3cc(C)cc(N)n3)c2)c1', 'Ki', '26.4 µM'),
  ('Cc1cc(N)nc(CCc2cc(CCc3cc(C)cc(N)n3)cc(N3CCN(C)CC3)c2)c1', 'Ki', '97.4 µM'),
  ('Cc1cc(N)nc(CCc2ccc(CCCN)c(CCc3cc(C)cc(N)n3)c2)c1', 'Ki', '33.4 µM');

Q: Report the value of Ki obtained on bovine eNOS (Bos taurus, UniProt P29473) for Cc1cc(N)nc(CCc2cc(CN)cc(CCc3cc(C)cc(N)n3)c2)c1 .
A: 11.7 µM
